Tested on: HCT-15 colon
Procedure summary: NCI-60 one-dose screen, 48 h
Condition label: 10 µM unless noted
Compounds without any hit were thinned out: in the full panel of roughly 83,000, 20% have a hit. Calls of active or inactive are those of the source. The calls were made as follows: active = growth percent below 10; inactive = the rest.
The reply should be one of these categories: active, inactive

C/C(=C(/c1ccc(O)cc1)c1ccc(OCCN2CCCC2)cc1)c1ccc(Cl)cc1 = active
CS(=O)c1nccc(-c2c(-c3ccc(F)c(OCc4ccccc4)c3)nc3sccn23)n1 (stereo not drawn) = inactive
CC1(C)CC[C@]2(C(=O)O)CC[C@]3(C)C(=CCC4[C@@]5(C)C[C@@H](O)[C@@H]6OC(c7cccc([N+](=O)[O-])c7)OC[C@@]6(C)C5CC[C@]43C)C2C1 (stereo partly drawn) = inactive
CCCCCCNC(=O)Oc1ccc(/C(=C(\C)c2ccc(Cl)cc2)c2ccc(OCCN(C)C)cc2)cc1 = active
CCOC(=O)c1c(Nc2ccccc2)nn2c(-c3ccc(OC)c(OC)c3)ccnc12 = inactive
CCOC(=O)C1=C(C)N=C2Sc3ccccc3N2C1c1ccccc1 (stereo not drawn) = inactive

Prompt line: How was O=C1Nc2cc(OC(F)(F)F)ccc2Oc2ccc(-c3ccnc(N4CCNCC4)c3)cc21 classified in this test?
Response line: active

Prompt line: How was O=C(C[n+]1ccnc2ccccc21)c1ccc(O)c(O)c1 classified in this test?
Response line: inactive

Prompt line: How was CCN(CC)CCCC(C)NCC(=O)NC(c1ccc2c(c1)OCO2)c1cc(Cl)c2cccnc2c1O (stereo not drawn) classified in this test?
Response line: inactive

Prompt line: How was O=C(/C=C/c1cn(-c2ccccc2)nc1-c1ccc(Cl)cc1)c1cc2ccccc2oc1=O classified in this test?
Response line: inactive

Prompt line: How was CS(=O)(=O)c1ccc2c(c1)c1c(n2C(=O)c2ccc(Cl)cc2)CCCC1 classified in this test?
Response line: inactive

Prompt line: How was C=C1C(=O)O[C@@H]2C[C@@H](C)[C@H](OC)CC(=O)[C@](C)(OC(C)=O)C[C@H](OC(=O)/C(C)=C\C)[C@@H]12 classified in this test?
Response line: inactive

Prompt line: How was CC(=O)Nc1cccc(-n2cnc3cc(-c4ccc(O)cc4)ccc32)c1 classified in this test?
Response line: inactive

Prompt line: How was COc1ccc(N2CCN(C(=O)CSc3ccc(-c4nc5cc(C)c(C)cc5[nH]4)cn3)CC2)cc1 classified in this test?
Response line: inactive

Prompt line: How was Cc1nn(-c2ccc(Br)cc2)c2nc(CCl)[nH]c(=O)c12 classified in this test?
Response line: inactive

Prompt line: How was CSc1nccc(-c2c(-c3ccc(F)c(OCc4ccc(F)cc4)c3)nc3sccn23)n1 classified in this test?
Response line: inactive

Prompt line: How was COc1ccc(C2CC(c3ccc(Nc4nc(NCCO)nc(Nc5ccc(Cl)cc5)n4)cc3)=Nc3c(N)nc(N)nc3N2)cc1 (stereo not drawn) classified in this test?
Response line: inactive

Prompt line: How was C#C[C@]1(O)CC[C@H]2[C@@H]3CC=C4c5sc(C6CC6)nc5CC[C@]4(C)[C@H]3CC[C@@]21C classified in this test?
Response line: inactive
